The entries below come with measured self-splicing fitness (ln) values attached.
Measurement Description: self-splicing fitness, log relative to wild type (ln ratio); higher = more splicing; Tetrahymena group I intron in knt gene, E. coli kanamycin selection, DiMSum; sequences stand for … in CUCUCU…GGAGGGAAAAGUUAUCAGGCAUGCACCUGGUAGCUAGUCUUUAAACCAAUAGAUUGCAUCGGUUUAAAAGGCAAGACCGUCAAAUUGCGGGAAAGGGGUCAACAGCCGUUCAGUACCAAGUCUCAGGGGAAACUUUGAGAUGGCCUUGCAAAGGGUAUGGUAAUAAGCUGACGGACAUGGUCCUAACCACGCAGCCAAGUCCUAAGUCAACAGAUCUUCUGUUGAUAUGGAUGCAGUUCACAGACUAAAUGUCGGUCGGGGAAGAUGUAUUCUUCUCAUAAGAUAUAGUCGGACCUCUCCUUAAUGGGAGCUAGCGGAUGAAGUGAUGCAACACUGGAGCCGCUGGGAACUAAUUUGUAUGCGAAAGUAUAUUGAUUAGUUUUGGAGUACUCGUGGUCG;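 also: selection with 25 µg/mL kanamycin versus none on LB agar overnight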
Condition Set: 37 °C

Q: Requested read-out: self-splicing fitness (ln). Entry: UGCCAGCAAUAUUACGCGGC
Result: -1.85

Q: Quick one: self-splicing fitness (ln) of CGGAAGCAAUAUUACGGUUC ?
Result: -2.85

Q: Which self-splicing fitness (ln) value is on record for ACUUAGCAAUAUUACGAGUG ?
Result: -1.58

Q: What value of self-splicing fitness (ln) has been reported for the following sequence? CCUUAGCAAUAUUACGACUA
Result: -2.23

Q: Query: self-splicing fitness (ln); subject: UAAGAGCAAUAUUACGUCGA
Result: -1.74

Q: Report self-splicing fitness (ln) for GCCCAGCAAUAUUACGAUCU please.
Result: -1.47

Q: Quick one: self-splicing fitness (ln) of UCACAGCAAUAUUACGGCAC ?
Result: -2.49

Q: Quick check: self-splicing fitness (ln) of GAAGAGCAAUAUUACGAUGG ?
Result: -2.1
